The origin of these recorded values is ChEMBL document CHEMBL1128485.

subject_of_test: Steroid 5-alpha-reductase (Rattus norvegicus, UniProt P24008+P31214)
measurement_description: Inhibitory activity against Steroid 5-alpha-reductase in prostates from male rats
Assay type: tissue-based, Prostate gland
Grouping by measured IC50 is done with the following cut points: low bin: < 0.01 µM; mid bin: ≥ 0.01 µM and < 0.09 µM; high bin: ≥ 0.09 µM

Please review the following examples before continuing.
{"columns": ["compound", "group"],
 "data": [
  ["C/C(=C\\C(=O)Nc1ccccc1OCCCC(=O)O)c1ccc2c(ccn2C(c2ccccc2)c2ccncc2)c1 (configuration not stated)", "mid bin"],
  ["C/C(=C\\C(=O)Nc1ccccc1OCCCC(=O)O)c1ccc2c(ccn2Cc2ccc(C(F)(F)F)cc2)c1", "high bin"],
  ["C/C(=C\\C(=O)Nc1ccccc1OCCCC(=O)O)c1ccc2c(ccn2Cc2cccc(C)c2)c1", "high bin"]
]}

Category of C/C(=C\C(=O)Nc1ccccc1OCCCC(=O)O)c1ccc2c(ccn2Cc2ccccc2C)c1 , please.
mid bin

Exercise: read the entry CCCCC(C)n1ccc2cc(/C(C)=C/C(=O)Nc3ccccc3OCCCC(=O)O)ccc21 (configuration not stated) and state which class it falls under.
low bin

Assign a category based on measured IC50 for C/C(=C\C(=O)Nc1ccc(C)cc1OCCCC(=O)O)c1ccc2c(ccn2C(c2ccccc2)c2ccccc2)c1 and give only the class name.
mid bin

Bin this entry: CCCC(C)n1ccc2cc(/C(C)=C/C(=O)Nc3ccccc3OCCCC(=O)O)ccc21 (configuration not stated)
low bin

====

subject_of_test: Steroid 5-alpha-reductase (Rattus norvegicus, UniProt P24008+P31214)
measurement_description: Inhibitory activity against Steroid 5-alpha-reductase in prostates from male rats
Format: tissue-based, Prostate gland
assay_metric: IC50 (nM)
Output spec: scalar in nM, unitless text.

Reference set, count: 3
{"columns": ["compound", "subject_of_test", "IC50, nM"],
 "data": [
  ["C/C(=C\\C(=O)Nc1ccccc1OCCCC(=O)O)c1ccc2c(ccn2C(C)c2ccccc2)c1 (stereo not given)", "Steroid 5-alpha-reductase (Rattus norvegicus, UniProt P24008+P31214)", 19],
  ["C/C(=C\\C(=O)Nc1ccccc1OCCCC(=O)O)c1ccc2c(ccn2C(c2ccccc2)c2ccccn2)c1 (stereo not given)", "Steroid 5-alpha-reductase (Rattus norvegicus, UniProt P24008+P31214)", 37],
  ["CCCCC(CCCC)n1ccc2cc(/C(C)=C/C(=O)Nc3ccccc3OCCCC(=O)O)ccc21", "Steroid 5-alpha-reductase (Rattus norvegicus, UniProt P24008+P31214)", 21]
]}

Field request: IC50 | item: CCCCC(CC)n1ccc2cc(/C(C)=C/C(=O)Nc3ccccc3OCCCC(=O)O)ccc21 (stereo not given)
7.1

Field request: IC50 | item: CCCC(CC)n1ccc2cc(/C(C)=C/C(=O)Nc3ccccc3OCCCC(=O)O)ccc21 (stereo not given)
9.3

====

subject_of_test: Steroid 5-alpha-reductase (Rattus norvegicus, UniProt P24008+P31214)
Sequence (P24008 whole entry): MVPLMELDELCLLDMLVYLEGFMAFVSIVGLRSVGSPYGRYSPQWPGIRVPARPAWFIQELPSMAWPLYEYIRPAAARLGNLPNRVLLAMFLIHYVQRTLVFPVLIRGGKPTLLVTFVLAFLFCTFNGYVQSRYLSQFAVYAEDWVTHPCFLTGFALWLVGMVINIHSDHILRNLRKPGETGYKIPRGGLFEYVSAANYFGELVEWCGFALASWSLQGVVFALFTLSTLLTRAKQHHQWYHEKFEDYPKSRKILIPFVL
Sequence (P31214 whole entry): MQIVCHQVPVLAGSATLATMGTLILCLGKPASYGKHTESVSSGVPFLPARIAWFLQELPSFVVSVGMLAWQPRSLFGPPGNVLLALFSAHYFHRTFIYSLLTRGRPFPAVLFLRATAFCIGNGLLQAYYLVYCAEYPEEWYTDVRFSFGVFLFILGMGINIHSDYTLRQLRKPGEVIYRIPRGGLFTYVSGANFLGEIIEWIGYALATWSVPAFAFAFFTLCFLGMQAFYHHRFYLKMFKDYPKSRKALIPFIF
measurement_description: Inhibitory activity against Steroid 5-alpha-reductase in prostates from male rats
Format: tissue-based, Prostate gland
assay_metric: IC50 (nM)
Express your answer in nM, writing the number without its unit.

Here is how some compounds turned out for IC50.
{"columns": ["compound", "assay_metric", "observed"],
 "data": [
  ["CCCCn1ccc2cc(/C(C)=C/C(=O)Nc3ccccc3OCCCC(=O)O)ccc21", "IC50", 43],
  ["CCCCCC(CCCCC)n1ccc2cc(/C(C)=C/C(=O)Nc3ccccc3OCCCC(=O)O)ccc21", "IC50", 25],
  ["CCCCCC(c1ccccc1)n1ccc2cc(/C(C)=C/C(=O)Nc3ccccc3OCCCC(=O)O)ccc21 (stereo not drawn)", "IC50", 25],
  ["C/C(=C\\C(=O)Nc1ccccc1OCCCC(=O)O)c1ccc2c(ccn2CC(C)(C)C)c1.Cc1ccccc1", "IC50", 84]
]}

For C/C(=C\C(=O)Nc1ccccc1OCCCC(=O)O)c1ccc2c(ccn2C(c2ccccc2)c2ccc(C(F)(F)F)cc2)c1 (stereo not drawn) , what is its reported IC50?
8.1

# lookup: IC50 of CCC(c1ccccc1)n1ccc2cc(/C(C)=C/C(=O)Nc3ccccc3OCCCC(=O)O)ccc21 (stereo not drawn)
19

Which IC50 value belongs to CCCCCn1ccc2cc(/C(C)=C/C(=O)Nc3ccccc3OCCCC(=O)O)ccc21 ?
23

Request the reported IC50 associated with COc1ccc(Cn2ccc3cc(/C(C)=C/C(=O)Nc4ccccc4OCCCC(=O)O)ccc32)cc1
480

Requested field: IC50. Item: C/C(=C\C(=O)Nc1ccccc1OCCCC(=O)O)c1ccc2c(ccn2CC(C)C)c1
160

What IC50 value was documented for this compound, CCCCCCCn1ccc2cc(/C(C)=C/C(=O)Nc3ccccc3OCCCC(=O)O)ccc21 ?
120

Look at this compound and give its reported IC50. C/C(=C\C(=O)Nc1ccccc1OCCCC(=O)O)c1ccc2c(ccn2C(C(C)C)C(C)C)c1
14

Using the record for CCCC(C(C)C)n1ccc2cc(/C(C)=C/C(=O)Nc3ccccc3OCCCC(=O)O)ccc21 (stereo not drawn) , report its IC50.
7.2

So what does the record say about IC50 for C/C(=C\C(=O)Nc1ccccc1OCCCC(=O)O)c1ccc2c(ccn2C)c1 ?
780

====

subject_of_test: Steroid 5-alpha-reductase (Rattus norvegicus, UniProt P24008+P31214)
measurement_description: Inhibitory activity against Steroid 5-alpha-reductase in prostates from male rats
Format: tissue-based, Prostate gland
Here, each record is paired with measured log10 of IC50 data.
Could you please treat all values as log10 of IC50 in nM?

{"columns": ["compound", "observed"],
 "data": [
  ["C/C(=C\\C(=O)Nc1ccc(F)cc1OCCCC(=O)O)c1ccc2c(ccn2C(c2ccccc2)c2ccccc2)c1", 0.56]
]}

Test system Steroid 5-alpha-reductase (Rattus norvegicus, UniProt P24008+P31214); read-out log10 of IC50; what value for CCCCc1ccc(Cn2ccc3cc(/C(C)=C/C(=O)Nc4ccccc4OCCCC(=O)O)ccc32)cc1 ?
2.00

Checklist item: log10 of IC50 tested on Steroid 5-alpha-reductase (Rattus norvegicus, UniProt P24008+P31214), entry C/C(=C\C(=O)Nc1ccccc1OCCCC(=O)O)c1ccc2c(ccn2C(c2ccccc2)C(C)C)c1 (stereo not drawn) , value?
1.40

Report log10 of IC50 for C/C(=C\C(=O)Nc1ccccc1OCCCC(=O)O)c1ccc2c(ccn2C(c2ccc(Cl)cc2)c2ccc(Cl)cc2)c1 tested on Steroid 5-alpha-reductase (Rattus norvegicus, UniProt P24008+P31214).
1.40

API: value(readout=log10 of IC50, system=Steroid 5-alpha-reductase (Rattus norvegicus, UniProt P24008+P31214)) for record C/C(=C\C(=O)Nc1ccccc1OCCCC(=O)O)c1ccc2c(ccn2C(c2ccccc2)c2ccccc2)c1
0.75

Record C/C(=C\C(=O)Nc1ccccc1OCCCC(=O)O)c1ccc2c(ccn2C(c2ccccc2)c2cccnc2)c1 (stereo not drawn) : what is its log10 of IC50 with Steroid 5-alpha-reductase (Rattus norvegicus, UniProt P24008+P31214)?
1.67

Give recorded log10 of IC50 with Steroid 5-alpha-reductase (Rattus norvegicus, UniProt P24008+P31214) for the following compound: C/C(=C\C(=O)Nc1ccccc1SCCCC(=O)O)c1ccc2c(ccn2C(c2ccccc2)c2ccccc2)c1
1.59

Form field: log10 of IC50 recorded for CCCCCCn1ccc2cc(/C(C)=C/C(=O)Nc3ccccc3OCCCC(=O)O)ccc21 with Steroid 5-alpha-reductase (Rattus norvegicus, UniProt P24008+P31214) (enter value)
1.89

====

subject_of_test: Steroid 5-alpha-reductase (Rattus norvegicus, UniProt P24008+P31214)
measurement_description: Inhibitory activity against Steroid 5-alpha-reductase in prostates from male rats
Format: tissue-based, Prostate gland
assay_metric: IC50 (nM)
API: value field is a number in nM; no unit string.

Check out these entries, answers already filled in.
{"columns": ["compound", "assay_metric", "observed"],
 "data": [
  ["COc1ccc(C(c2ccccc2)n2ccc3cc(/C(C)=C/C(=O)Nc4ccccc4OCCCC(=O)O)ccc32)cc1 (centres undefined)", "IC50", 8.8],
  ["C/C(=C\\C(=O)Nc1ccccc1OCCCC(=O)O)c1ccc2c(ccn2Cc2ccc(C(C)(C)C)cc2)c1", "IC50", 170],
  ["CC(C)=CCn1ccc2cc(/C(C)=C/C(=O)Nc3ccccc3OCCCC(=O)O)ccc21", "IC50", 120]
]}

Please find the next compound below.
Return reported IC50; argument: C/C(=C\C(=O)Nc1ccccc1OCCCC(=O)O)c1ccc2c(ccn2C(CC(C)C)c2ccccc2)c1 (centres undefined)
6.3
